Assay: Apparent pKa of LNP formulations (TNS fluorescence assay)
Settings: LNP cationic lipid/DSPC/cholesterol/DMG-PEG 50/10/38.5/1.5 mol %, Table 3
Measurement kind: Apparant Pka

INSERT INTO assay_data (compound, measurement_kind, endpoint_result) VALUES
  ('CCCCCCCCC(CCCCCC)COC(=O)CCCCCCN(CCCCCCC(=O)OCC(CCCCCC)CCCCCCCC)CCN(CCO)C1CCC1 (stereo not drawn) [Compound 37]', 'Apparant Pka', 6.205),
  ('CCCCC/C=C\CCCC(CCC/C=C\CCCCC)COC(=O)CCCCCN(CCCCCC(=O)OCC(CCC/C=C\CCCCC)CCC/C=C\CCCCC)CCN(CCO)C1CCC1 [Compound 66]', 'Apparant Pka', 6.036),
  ('CCCCCCCCOC(CCCCCN(CCCCCC(=O)NCC(CCCCCC)CCCCCC)CCN(CCO)C1CCC1)OCCCCCCCC [Compound 150]', 'Apparant Pka', 6.918),
  ('CCCCC/C=C\CCCC(CCC/C=C\CCCCC)OC(=O)CCCCCN(CCCCCC(=O)OCCC/C=C/CCCCC)CCN(CCO)C1CCC1 [Compound 63]', 'Apparant Pka', 6.406),
  ('CCCCCCCCC(CCCCCC)CNC(=O)CCCCCN(CCCCCC(=O)NCC(CCCCCC)CCCCCCCC)CCN(CCO)C1CC(O)C1 (stereo not drawn) [Compound 134]', 'Apparant Pka', 6.442),
  ('CCCCCCCCCC(CCCCCCCCC)COC(=O)CCCCCN(CCCCCC(=O)OCC(CCCCCCCCC)CCCCCCCCC)CCN(CCO)C1CCC1 [Compound 51]', 'Apparant Pka', 6.093);

====

Assay: Lipid nanoparticle size by dynamic light scattering (Malvern Zetasizer Nano ZS)
Type: physicochemical
Settings: LNP: cationic lipid/DSPC/cholesterol/PEG-lipid 50:10:38.5:1.5, hEPO mRNA; Table 3
Measurement kind: size nm (nm)

The cases that follow already have their size nm on record.
INSERT INTO results (molecule, value_units, endpoint_result) VALUES
  ('CCCCCCCCC(CCCCCC)COC(=O)NCCCCN(CCCCNC(=O)OCC(CCCCCC)CCCCCCCC)CCN(CCO)C1CCCCC1 (stereo not drawn) [Compound 124]', 'nm', 64.66),
  ('CCCCCCCCCC(CCCCCCCCC)COC(=O)CCCCCN(CCCCCC(=O)OCC(CCCCCCCCC)CCCCCCCCC)CCN(CCO)C1CCC1 [Compound 51]', 'nm', 59.73);

A: CCCCCCCCCCCCC(CCCCCC)COC(=O)CCCN(CCCC(=O)OCC(CCCCCC)CCCCCCCCCCCC)CCN(CCO)C1CCC1 (stereo not drawn) [Compound 47]
B: CCCCCCCCC(CCCCCC)CNC(=O)CCCCCN(CCCCCC(=O)NCC(CCCCCC)CCCCCCCC)CCN(CCO)C1CCCC1 (stereo not drawn) [Compound 111]
// task: argmin of size nm over [ A , B ] Please respond with the label that marks your chosen entry.
A

====

Assay: Lipid nanoparticle size by dynamic light scattering (Malvern Zetasizer Nano ZS)
Assay type: physicochemical
Details: LNP: cationic lipid/DSPC/cholesterol/PEG-lipid 50:10:38.5:1.5, hEPO mRNA; Table 3
Measurement kind: polydispersity

A: CCCCCCCCC(CCCCCC)COC(=O)CCCCCN(CCCCCC(=O)OCC(CCCCCC)CCCCCCCC)CCN(C(C)C)C1CCC(O)CC1 (stereo not drawn)
B: CCCCCCCCC(CCCCCC)CNC(=O)CCCCCN(CCCCCC(=O)NCC(CCCCCC)CCCCCCCC)CCN(CCC)C1CCC(O)CC1 (stereo not drawn)
C: CCCCCCCCC(CCCCCC)CNC(=O)CCCCCN(CCCCCC(=O)NCC(CCCCCC)CCCCCCCC)CCN(CCO)C1CCC1 (stereo not drawn) [Compound 107]
Descending sort on polydispersity required. When ranking, write the labels in the order the request describes.
C, A, B

====

Assay: Lipid nanoparticle size by dynamic light scattering (Malvern Zetasizer Nano ZS)
Assay type: physicochemical
Conditions: LNP: cationic lipid/DSPC/cholesterol/PEG-lipid 50:10:38.5:1.5, hEPO mRNA; Table 3
Measurement kind: size nm (nm)

INSERT INTO results (compound, value_units, endpoint_result) VALUES
  ('CCCCCCC(CCCCCC)CC(=O)NCCCCCN(CCCCCOC(=O)CC(CCCCCC)CCCCCC)CCN(CCO)C1CCCCCC1', 'nm', 81.13),
  ('CCCCCCCCC(CCCCCC)CC(=O)NCCCCCN(CCCCCNC(=O)CC(CCCCCC)CCCCCCCC)CCN(CCO)C1CC1 (stereo not shown)', 'nm', 90),
  ('CCCCCCCCC(CCCCCC)CNC(=O)CCCCCN(CCCCCC(=O)OCC(CCCCCC)CCCCCCCC)CCN(CCO)C1CCC1 (stereo not shown)', 'nm', 76.97),
  ('CCCCCCCCC(CCCCCC)COC(=O)CCCCCN(CCCCCC(=O)OCC(CCCCCC)CCCCCCCC)CCN(CCC)C1CCC(O)CC1 (stereo not shown)', 'nm', 85.46),
  ('CCCCCCCCC(CCCCCC)CNC(=O)CCCCCN(CCCCCC(=O)NCC(CCCCCC)CCCCCCCC)CCN(CCO)C1CC1 (stereo not shown) [Compound 119]', 'nm', 67.17),
  ('CCCCCCCCC(CCCCCC)CC(=O)NCCCCCN(CCCCCOC(=O)CC(CCCCCC)CCCCCCCC)CCN(CCO)C1CCCC1 (stereo not shown)', 'nm', 79.92),
  ('CCCCCCCCCCC(CCCCCCCCCC)COC(=O)CCCCCN(CCCCCC(=O)OCC(CCCCCCCCCC)CCCCCCCCCC)CCN(CCO)C1CCC1', 'nm', 69.18),
  ('CCCCCCCCCCCOC(=O)CCCCCN(CCCCCC(=O)NCC(CCCCCCCC)CCCCCCCC)CCN(CCO)C1CCCCCC1', 'nm', 72.85);

A: CCCCCCCCC(CCCCCC)CNC(=O)CCCCCN(CCCCCC(=O)NCC(CCCCCC)CCCCCCCC)CCN(CCO)C1CCC1 (stereo not shown) [Compound 118]
B: CCCCC/C=C\CCCC(CCC/C=C\CCCCC)OC(=O)CCCCCN(CCCCCC(=O)OCCC/C=C/CCCCC)CCN(CCO)C1CCC1
Quick check, higher size nm between A and B ? Please respond with the label that marks your chosen entry.
B

====

Assay: Apparent pKa of LNP formulations (TNS fluorescence assay)
Conditions: LNP cationic lipid/DSPC/cholesterol/DMG-PEG 50/10/38.5/1.5 mol %, Table 2
Measurement kind: Apparant Pka

INSERT INTO assay_data (compound, endpoint_result) VALUES
  ('CCCCCCCCC(CCCCCC)COC(=O)CCCCCN(CCCCCC(=O)OCC(CCCCCC)CCCCCCCC)CCN(CCO)CCCC (stereo not shown)', 6.46),
  ('CCCCCCCCC(CCCCCC)COC(=O)CCCCCN(CCCCCC(=O)OCC(CCCCCC)CCCCCCCC)CCN(CCO)C1CCCCCCC1 (stereo not shown)', 5.88),
  ('CCCCCCCCC(CCCCCC)COC(=O)CCCCCN(CCCCCC(=O)OCC(CCCCCC)CCCCCCCC)CCN(CCCO)C1CCCCCC1 (stereo not shown)', 5.83),
  ('CCCCCCCCC(CCCCCC)COC(=O)CCCCCN(CCCCCC(=O)OCC(CCCCCC)CCCCCCCC)CCN(CCO)C1CCCCCC1 (stereo not shown)', 6.22),
  ('CCCCCCCCC(CCCCCC)COC(=O)CCCCCN(CCCCCC(=O)OCC(CCCCCC)CCCCCCCC)CCN(CCO)CCCCCC (stereo not shown)', 6.28),
  ('CCCCCCCCC(CCCCCC)COC(=O)CCCCCN(CCCCCC(=O)OCC(CCCCCC)CCCCCCCC)CCN(CCO)C1CC1 (stereo not shown)', 5.87),
  ('CCCCCCCCC(CCCCCC)COC(=O)CCCCCN(CCCCCC(=O)OCC(CCCCCC)CCCCCCCC)CCN(CCO)C1CCCCC1 (stereo not shown)', 6.27);

====

Experiment: Encapsulation efficiency of lipid nanoparticles (Quant-it Ribogreen RNA quantification assay)
Format: physicochemical
Settings: LNP encapsulating hEPO mRNA; Table 3
Measurement kind: Encapsulation Efficiency (%)

INSERT INTO results (compound, measurement_kind, value_units, endpoint_result) VALUES
  ('CCCCCCCCC(CCCCCC)COC(=O)CCCCCN(CCCCCC(=O)OCC(CCCCCC)CCCCCCCC)CCN(CCCCC)C1CCC(O)CC1 (stereo not shown)', 'Encapsulation Efficiency', '%', 83.4),
  ('CCCCCCCCC(CCCCCC)COC(=O)CCCCCN(CCCCCC(=O)OCC(CCCCCC)CCCCCCCC)CCN(CC(O)CCCC)C1CCC1 (stereo not shown)', 'Encapsulation Efficiency', '%', 94.5),
  ('CCCCCCCCC(CCCCCC)COC(=O)CCCCCN(CCCCCC(=O)OCC(CCCCCC)CCCCCCCC)C1CCN(CCO)CC1 (stereo not shown)', 'Encapsulation Efficiency', '%', 97.6),
  ('CCCCCCC(CCCCCC)CC(=O)NCCCCCN(CCCCCOC(=O)CC(CCCCCC)CCCCCC)CCN(CCO)C1CCCCCC1', 'Encapsulation Efficiency', '%', 85.3),
  ('CCCCCCC(CCCCCC)CNC(=O)CCCCCN(CCCCCC(=O)OCC(CCCCCC)CCCCCC)CCN(CCO)C1CCCCCC1', 'Encapsulation Efficiency', '%', 89.1),
  ('CCCCCCC(CCCCCC)COC(=O)CCCCCN(CCCCCC(=O)OCC(CCCCCC)CCCCCC)CCN(CCO)C1CCC1 [Compound 48]', 'Encapsulation Efficiency', '%', 91.80),
  ('CCCCC(CCCC)CCCCCC(=O)OCCCCCN(CCCCCOC(=O)CCCCCC(CCCC)CCCC)CCN(CCO)C1CCC1', 'Encapsulation Efficiency', '%', 93.7);
